Biological target: CD28 (Homo sapiens, UniProt P10747)
Assay: Jurkat/IL2 + CHO/OKT3 +/- PD-L1 reporter assay: PD-L1-dependent CD28 costimulation
Assay type: cell-based
Set-up: host or cells: Jurkat cells expressing an IL-2-luciferase reporter
Conditions: Table E13; Jurkat/IL2 + CHO/OKT3/PD-L1; 5.0 nM
MEASURED ENDPOINT: Relative Luciferase Units (RLU), CD80 Cone 5.0 nM
The reply should contain only the number, in RLU.

MOLECULE	UNIT TAG	REPORTED
V22D/E24D/E35D/M47V/V68M (protein, CD80 v385 ECD) VIHVTKEVKEVATLSCGHNVSDEDLAQTRIYWQKDKKMVLTMMSGDVNIWPEYKNRTIFDITNNLSIMILALRPSDEGTYECVVLKYEKDAFKREHLAEVTLSVKADFPTPSISDFETPTSNIRRIICSTSGGFPEPHLSWLENGEELNAINTTVSQDPETELYAVSSKLDFNMTTNHSFMCLIKYGHLRVNQTFNWNTTKQEHFPDN	RLU	1023
E24D/E35D/M47L/V68M/E95V/L97Q (protein, UniProt P33681 35-288, looked up, variant E24D E35D M47L V68M E95V L97Q) T-lymphocyte activation …: VIHVTKEVKEVATLSCGHNVSVEDLAQTRIYWQKDKKMVLTMMSGDLNIWPEYKNRTIFDITNNLSIMILALRPSDEGTYECVVLKYEKDAFKRVHQAEVTLSVKADFPTPSISDFEIPTSNIRRIICSTSGGFPEPHLSWLENGEELNAINTTVSQDPETELYAVSSKLDFNMTTNHSFMCLIKYGHLRVNQTFNWNTTKQEHFPDNLLPSWAITLISVNGIFVICCLTYCFAPRCRERRRNERLRRESVRPV	RLU	1087
T13R/Q33R/E35D/M47L/V68M (protein, CD80 v381 ECD) VIHVTKEVKEVARLSCGHNVSVEELAQTRIYWRKDKKMVLTMMSGDLNIWPEYKNRTIFDITNNLSIMILALRPSDEGTYECVVLKYEKDAFKREHLAEVTLSVKADFPTPSISDFETPTSNIRRIICSTSGGFPEPHLSWLENGEELNAINTTVSQDPETELYAVSSKLDFNMTTNHSFMCLIKYGHLRVNQTFNWNTTKQEHFPDN	RLU	399
V22D/E24D/E35D/M47L/V68M/L85M/D90G (protein, CD80 v384 ECD) VIHVTKEVKEVATLSCGHNVSDEDLAQTRIYWQKDKKMVLTMMSGDLNIWPEYKNRTIFDITNNLSIMILALRPSDEGTYECVVMKYEKGAFKREHLAEVTLSVKADFPTPSISDFETPTSNIRRIICSTSGGFPEPHLSWLENGEELNAINTTVSQDPETELYAVSSKLDFNMTTNHSFMCLIKYGHLRVNQTFNWNTTKQEHFPDN	RLU	963
T13R/Q33R/E35D/M38I/M47L/V68M/E95V/L97Q (protein, UniProt P33681 35-288, looked up, variant T13R Q33R E35D M38I M47L V68M E95V L97Q) T-lymphocyte activation …: VIHVTKEVKEVARLSCGHNVSVEELAQTRIYWRKDKKIVLTMMSGDLNIWPEYKNRTIFDITNNLSIMILALRPSDEGTYECVVLKYEKDAFKRVHQAEVTLSVKADFPTPSISDFEIPTSNIRRIICSTSGGFPEPHLSWLENGEELNAINTTVSQDPETELYAVSSKLDFNMTTNHSFMCLIKYGHLRVNQTFNWNTTKQEHFPDNLLPSWAITLISVNGIFVICCLTYCFAPRCRERRRNERLRRESVRPV	RLU	993
E35D/M43I/M47L/V68M (protein, UniProt P33681 35-288, looked up, variant E35D M43I M47L V68M) T-lymphocyte activation …: VIHVTKEVKEVATLSCGHNVSVEELAQTRIYWQKDKKMVLTMISGDLNIWPEYKNRTIFDITNNLSIMILALRPSDEGTYECVVLKYEKDAFKREHLAEVTLSVKADFPTPSISDFEIPTSNIRRIICSTSGGFPEPHLSWLENGEELNAINTTVSQDPETELYAVSSKLDFNMTTNHSFMCLIKYGHLRVNQTFNWNTTKQEHFPDNLLPSWAITLISVNGIFVICCLTYCFAPRCRERRRNERLRRESVRPV	RLU	1072
Q33R/E35D/M38I/M47L/V68M (protein, UniProt P33681 35-288, looked up, variant Q33R E35D M38I M47L V68M) T-lymphocyte activation …: VIHVTKEVKEVATLSCGHNVSVEELAQTRIYWRKDKKIVLTMMSGDLNIWPEYKNRTIFDITNNLSIMILALRPSDEGTYECVVLKYEKDAFKREHLAEVTLSVKADFPTPSISDFEIPTSNIRRIICSTSGGFPEPHLSWLENGEELNAINTTVSQDPETELYAVSSKLDFNMTTNHSFMCLIKYGHLRVNQTFNWNTTKQEHFPDNLLPSWAITLISVNGIFVICCLTYCFAPRCRERRRNERLRRESVRPV	RLU	147
E35D/M47L/V68M/E95V/L97Q (protein, UniProt P33681 35-288, looked up, variant E35D M47L V68M E95V L97Q, Fc fusion) T-lymphocyte activation …: VIHVTKEVKEVATLSCGHNVSVEELAQTRIYWQKDKKMVLTMMSGDLNIWPEYKNRTIFDITNNLSIMILALRPSDEGTYECVVLKYEKDAFKRVHQAEVTLSVKADFPTPSISDFEIPTSNIRRIICSTSGGFPEPHLSWLENGEELNAINTTVSQDPETELYAVSSKLDFNMTTNHSFMCLIKYGHLRVNQTFNWNTTKQEHFPDNLLPSWAITLISVNGIFVICCLTYCFAPRCRERRRNERLRRESVRPV	RLU	1086
E35D/M47V/V68M/L85M/Y87D (protein, UniProt P33681 35-288, looked up, variant E35D M47V V68M L85M Y87D) T-lymphocyte activation …: VIHVTKEVKEVATLSCGHNVSVEELAQTRIYWQKDKKMVLTMMSGDVNIWPEYKNRTIFDITNNLSIMILALRPSDEGTYECVVMKDEKDAFKREHLAEVTLSVKADFPTPSISDFEIPTSNIRRIICSTSGGFPEPHLSWLENGEELNAINTTVSQDPETELYAVSSKLDFNMTTNHSFMCLIKYGHLRVNQTFNWNTTKQEHFPDNLLPSWAITLISVNGIFVICCLTYCFAPRCRERRRNERLRRESVRPV	RLU	1181

Now for the molecule whose Relative Luciferase Units (RLU), CD80 Cone 5.0 nM we want.
Data request: Look up and state reported Relative Luciferase Units (RLU), CD80 Cone 5.0 nM for H18Y/E35D/M47L/Y53F/V68M/A71G (protein, UniProt P33681 35-288, looked up, variant H18Y E35D M47L Y53F V68M A71G) T-lymphocyte activation …: VIHVTKEVKEVATLSCGYNVSVEELAQTRIYWQKDKKMVLTMMSGDLNIWPEFKNRTIFDITNNLSIMILGLRPSDEGTYECVVLKYEKDAFKREHLAEVTLSVKADFPTPSISDFEIPTSNIRRIICSTSGGFPEPHLSWLENGEELNAINTTVSQDPETELYAVSSKLDFNMTTNHSFMCLIKYGHLRVNQTFNWNTTKQEHFPDNLLPSWAITLISVNGIFVICCLTYCFAPRCRERRRNERLRRESVRPV
Data returned: 120
